- Test system: HL-60
- assay_explanation: Cytotoxicity against human HL-60 cells measured for 72 hrs by celltiter-glo assay
- assay_conditions: HL-60, 72 h
Threshold check on IC50: strictly below 2000 nM is true (1); on or above 2000 nM is false (0).

CCc1ccccc1N(CC(=O)NC1CCCCC1)C(=O)Cc1ccc(C(=O)NO)cc1F :: true (1)
O=C(CN(C(=O)Cc1ccc(C(=O)NO)cc1)c1ccccc1)NC1CCCCC1 :: true (1)
O=C(CN(C(=O)Cc1ccc(C(=O)NO)cc1)c1ccccc1C(F)(F)F)NC1CCCCC1 :: false (0)
Cc1ccc(N(CC(=O)NC2CCCCC2)C(=O)Cc2ccc(C(=O)NO)cc2)cc1 :: true (1)
O=C(CN(C(=O)Cc1ccc(C(=O)NO)cc1)c1ccccc1)NCc1ccccc1 :: false (0)

Input: Problem: For the compound Cc1cccc(N(CC(=O)NC2CCCCC2)C(=O)Cc2ccc(C(=O)NO)cc2)c1 , is IC50 under 2000 nM?
Output: true (1)

Input: Problem: For the compound CC(C)(C)NC(=O)CN(C(=O)Cc1ccc(C(=O)NO)cc1)c1ccccc1 , is IC50 under 2000 nM?
Output: false (0)

Input: Problem: For the compound O=C(CN(C(=O)Cc1ccc(C(=O)NO)cc1F)c1ccccc1C(F)(F)F)NC1CCCCC1 , is IC50 under 2000 nM?
Output: true (1)

---

- Test system: HL-60
- assay_explanation: Cytotoxicity against human HL-60 cells measured for 72 hrs by celltiter-glo assay
- assay_conditions: HL-60, 72 h
# pIC50 values compiled below
pIC50 here is simply -log10 of the concentration when that concentration is written in mol/L.

See these solved cases before continuing.
O=C(CN(C(=O)Cc1ccc(C(=O)NO)cc1F)c1ccccc1)NC1CCCCC1 :: 5.87
CCc1ccccc1N(CC(=O)NC1CCCCC1)C(=O)Cc1ccc(C(=O)NO)cc1 :: 5.87
Cc1ccccc1N(CC(=O)NC1CCCCC1)C(=O)Cc1ccc(C(=O)NO)cc1 :: 5.64
CCCCNC(=O)CN(C(=O)Cc1ccc(C(=O)NO)cc1)c1ccccc1 :: 5.57

Pending compound:
Input: # pIC50 lookup, item Cc1ccccc1N(CC(=O)NC1CCCCC1)C(=O)Cc1ccc(C(=O)NO)cc1F
Output: 5.69

---

- assayed_system: Histone deacetylase 1 (Homo sapiens, UniProt Q13547)
- Sequence (Q13547 whole entry, the tested form may be a part): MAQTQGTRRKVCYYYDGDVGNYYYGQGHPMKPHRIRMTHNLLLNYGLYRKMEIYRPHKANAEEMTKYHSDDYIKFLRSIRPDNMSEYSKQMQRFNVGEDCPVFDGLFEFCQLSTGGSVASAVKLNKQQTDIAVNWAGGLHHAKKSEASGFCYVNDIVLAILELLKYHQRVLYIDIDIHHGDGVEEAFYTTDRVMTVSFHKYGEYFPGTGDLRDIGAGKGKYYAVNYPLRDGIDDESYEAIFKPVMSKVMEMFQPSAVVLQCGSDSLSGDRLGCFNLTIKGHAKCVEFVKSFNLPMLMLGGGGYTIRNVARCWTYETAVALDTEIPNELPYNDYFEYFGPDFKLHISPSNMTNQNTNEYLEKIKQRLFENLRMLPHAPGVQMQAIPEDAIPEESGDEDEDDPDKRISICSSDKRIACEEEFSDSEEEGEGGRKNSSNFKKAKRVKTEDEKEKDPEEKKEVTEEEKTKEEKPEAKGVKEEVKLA
- assay_explanation: Inhibition of C-terminal his/FLAG-tagged full length human recombinant HDAC1 (1 to 482 residues) expressed in Sf9 insect cells using ZMAL-(Z-Lys(Ac)-AMC as substrate measured for 90 mins by microplate reader analysis
quantity_measured: IC50 (nM)
The response must be a number in nM with no trailing unit.

Input: # IC50 lookup, item O=C(CN(C(=O)Cc1ccc(C(=O)NO)cc1)c1ccccc1)NCc1ccccc1
Output: 283
